# reported Inhibitory effect on hOATP1B1-mediated E1S uptake; entries follow
- target.or.test.system: hOATP1B1 (Homo sapiens)
- Sequence (Q9Y6L6 whole entry): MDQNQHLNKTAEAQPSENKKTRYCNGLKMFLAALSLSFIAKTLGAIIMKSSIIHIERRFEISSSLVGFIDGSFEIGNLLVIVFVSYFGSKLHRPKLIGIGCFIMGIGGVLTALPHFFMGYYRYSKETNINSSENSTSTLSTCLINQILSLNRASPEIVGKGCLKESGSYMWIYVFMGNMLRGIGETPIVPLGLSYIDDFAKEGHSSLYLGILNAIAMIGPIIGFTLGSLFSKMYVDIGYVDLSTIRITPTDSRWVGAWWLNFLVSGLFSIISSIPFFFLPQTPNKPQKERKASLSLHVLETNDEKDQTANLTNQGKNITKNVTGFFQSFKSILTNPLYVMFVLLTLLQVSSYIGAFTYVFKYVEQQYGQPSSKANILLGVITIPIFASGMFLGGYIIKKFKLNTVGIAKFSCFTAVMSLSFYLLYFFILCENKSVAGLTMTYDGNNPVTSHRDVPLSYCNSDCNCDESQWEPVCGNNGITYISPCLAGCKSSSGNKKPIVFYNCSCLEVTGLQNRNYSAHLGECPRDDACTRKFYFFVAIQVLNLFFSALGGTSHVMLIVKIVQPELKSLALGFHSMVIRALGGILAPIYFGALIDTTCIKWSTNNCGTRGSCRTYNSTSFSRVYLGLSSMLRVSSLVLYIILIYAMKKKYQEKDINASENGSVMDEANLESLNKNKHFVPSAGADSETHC
- test.method.notes: cis-inhibition of hOATP1B1-mediated E1S uptake in HEK293 cells
- Type: cell-based
- Set-up: expressed in transfected cells; host or cells: HEK-293, stably transfected
- test.settings: 10 µM drug, 0.01 µM [3H]-E1S, 1 min
Give the number; % is assumed, so skip it.

* CCCc1nc(C(C)(C)O)c(C(=O)O)n1Cc1ccc(-c2ccccc2-c2nnn[nH]2)cc1 | 18

# input // fetch hOATP1B1 (Homo sapiens) Inhibitory effect on hOATP1B1-mediated E1S uptake for CC(=O)N1CCN(c2ccc(OCC3COC(Cn4ccnc4)(c4ccc(Cl)cc4Cl)O3)cc2)CC1 (stereo not shown)
# output 25

# input // query: `CC(C)CN(C[C@@H](O)[C@H](Cc1ccccc1)NC(=O)O[C@H]1CCOC1)S(=O)(=O)c1ccc(N)cc1`
# output −1

---

- target.or.test.system: rOATP1B2 (Rattus norvegicus, UniProt Q9QZX8)
- Construct: The full-length mOATP1B2 and rOATP1B2 consist of 689 and 678 amino acids
- Sequence (Q9QZX8 whole entry): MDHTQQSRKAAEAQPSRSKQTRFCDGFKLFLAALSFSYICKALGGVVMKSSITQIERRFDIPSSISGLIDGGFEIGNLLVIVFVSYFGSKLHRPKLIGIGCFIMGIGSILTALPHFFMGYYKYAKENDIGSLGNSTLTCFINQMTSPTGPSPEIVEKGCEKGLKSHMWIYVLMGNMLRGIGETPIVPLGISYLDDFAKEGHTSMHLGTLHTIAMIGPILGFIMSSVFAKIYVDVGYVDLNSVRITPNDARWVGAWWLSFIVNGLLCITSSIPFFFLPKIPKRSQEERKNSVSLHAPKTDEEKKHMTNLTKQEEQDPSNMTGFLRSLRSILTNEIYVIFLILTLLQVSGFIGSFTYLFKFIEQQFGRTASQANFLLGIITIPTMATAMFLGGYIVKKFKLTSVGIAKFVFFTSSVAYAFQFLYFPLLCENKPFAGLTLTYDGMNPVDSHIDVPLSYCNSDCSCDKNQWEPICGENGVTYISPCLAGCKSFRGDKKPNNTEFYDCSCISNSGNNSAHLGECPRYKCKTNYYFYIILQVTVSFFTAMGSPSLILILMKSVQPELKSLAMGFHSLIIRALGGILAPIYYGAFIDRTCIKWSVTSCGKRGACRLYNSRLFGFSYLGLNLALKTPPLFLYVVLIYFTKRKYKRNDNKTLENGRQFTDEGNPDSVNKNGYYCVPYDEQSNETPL
- test.method.notes: cis-inhibition of rOATP1B2-mediated E1S or TCA uptake in HEK293 cells
- Type: cell-based
- test.settings: HEK293, 10 µM drug, 1 µM [3H]-E1S, 1 min; read-out: Inhibitory effect on rOATP1B2-mediated E1S uptake
# reported inhibition at 10 µM; entries follow
Give the number; % is assumed, so skip it.

- Clc1ccccc1C(c1ccccc1)(c1ccccc1)n1ccnc1 [Clotrimazole, clotrimazole]: -10
- CC(=O)N1CCN(c2ccc(OCC3COC(Cn4ccnc4)(c4ccc(Cl)cc4Cl)O3)cc2)CC1 (centres unmarked) [Ketoconazole, ketoconazole]: 34
- CC(C)c1nc(N(C)S(C)(=O)=O)nc(-c2ccc(F)cc2)c1/C=C/[C@@H](O)C[C@@H](O)CC(=O)O [Rosuvastatin, rosuvastatin]: 73
- CC(C)c1nc(CN(C)C(=O)N[C@H](C(=O)N[C@@H](Cc2ccccc2)C[C@H](O)[C@H](Cc2ccccc2)NC(=O)OCc2cncs2)C(C)C)cs1 [Ritonavir, ritonavir]: 84
- CC(C)CN(C[C@@H](O)[C@H](Cc1ccccc1)NC(=O)O[C@H]1CCOC1)S(=O)(=O)c1ccc(N)cc1 [Amprenavir, amprenavir]: 21

# input Data request, read-out inhibition at 10 µM, for CO[C@H]1/C=C/O[C@@]2(C)Oc3c(C)c(O)c4c(O)c(c(/C=N/N5CCN(C)CC5)c(O)c4c3C2=O)NC(=O)/C(C)=C\C=C\[C@H](C)[C@H](O)[C@@H](C)[C@@H](O)[C@@H](C)[C@H](OC(C)=O)[C@@H]1C [Rifampicin, rifampicin]
# output 93

# input // query: CCCc1nc(C(C)(C)O)c(C(=O)O)n1Cc1ccc(-c2ccccc2-c2nnn[nH]2)cc1 [Olmesartan, olmesartan]
# output 27

# input // query: CCCCC1(CCCC)CN(c2ccccc2)c2cc(SC)c(OCC(=O)N[C@@H](C(=O)N[C@@H](CC)C(=O)O)c3ccc(O)cc3)cc2S(=O)(=O)N1 [Odevixibat, odevixibat]
# output 82

---

# reported Inhibitory effect on hOATP1B3-mediated TCA uptake; entries follow
- target.or.test.system: hOATP1B3 (Homo sapiens, UniProt Q9NPD5)
- Sequence (Q9NPD5 1-702): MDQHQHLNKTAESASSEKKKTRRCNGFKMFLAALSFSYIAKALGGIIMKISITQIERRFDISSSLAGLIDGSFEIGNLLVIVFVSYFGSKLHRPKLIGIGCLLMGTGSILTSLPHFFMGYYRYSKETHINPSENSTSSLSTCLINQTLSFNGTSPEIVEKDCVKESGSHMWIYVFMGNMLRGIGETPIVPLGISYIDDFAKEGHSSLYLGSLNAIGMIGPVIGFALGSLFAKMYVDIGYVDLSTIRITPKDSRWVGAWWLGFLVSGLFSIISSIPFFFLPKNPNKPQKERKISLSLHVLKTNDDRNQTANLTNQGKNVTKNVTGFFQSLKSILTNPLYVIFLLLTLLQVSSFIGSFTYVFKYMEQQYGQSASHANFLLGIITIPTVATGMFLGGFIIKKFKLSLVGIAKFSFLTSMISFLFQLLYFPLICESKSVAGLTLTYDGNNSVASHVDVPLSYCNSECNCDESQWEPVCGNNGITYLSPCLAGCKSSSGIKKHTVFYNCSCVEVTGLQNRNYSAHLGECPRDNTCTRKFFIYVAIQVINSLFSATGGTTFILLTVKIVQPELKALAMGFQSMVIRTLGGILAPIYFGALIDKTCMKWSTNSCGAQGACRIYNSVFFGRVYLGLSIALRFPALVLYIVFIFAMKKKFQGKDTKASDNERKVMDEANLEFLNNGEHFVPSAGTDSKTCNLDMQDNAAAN
- test.method.notes: cis-inhibition of hOATP1B3-mediated TCA uptake in HEK293 cells
- Type: cell-based
- Set-up: expressed in transfected cells; host or cells: HEK-293, stably transfected
- test.settings: 10 µM drug, 1 µM TCA, 10 min

• CCCc1nc(C(C)(C)O)c(C(=O)O)n1Cc1ccc(-c2ccccc2-c2nnn[nH]2)cc1 = 29%
• CC(=O)N1CCN(c2ccc(OCC3COC(Cn4ccnc4)(c4ccc(Cl)cc4Cl)O3)cc2)CC1 (stereo not shown) = 23%

# input Data request, read-out Inhibitory effect on hOATP1B3-mediated TCA uptake, for `CC(C)CN(C[C@@H](O)[C@H](Cc1ccccc1)NC(=O)O[C@H]1CCOC1)S(=O)(=O)c1ccc(N)cc1`
# output 21%

---

- target.or.test.system: hOATP1B1 (Homo sapiens)
- test.method.notes: cis-inhibition of hOATP1B1-mediated E1S uptake in HEK293 cells
- Assay type: cell-based
- Parameters: expressed in transfected cells; host or cells: HEK-293, stably transfected
- test.settings: human, HEK293 cells expressing hOATP1B1, probe 0.01 µM [3H]-E1S, 10 µM drug, read-out: Inhibitory effect on hOATP1B1-mediated E1S uptake
readout.name: inhibition at 1 min, 10 µM (%)
Give the number; % is assumed, so skip it.

- CCCCC1(CCCC)CN(c2ccccc2)c2cc(SC)c(OCC(=O)N[C@@H](C(=O)N[C@@H](CC)C(=O)O)c3ccc(O)cc3)cc2S(=O)(=O)N1 [Odevixibat, odevixibat]: 96
- Clc1ccccc1C(c1ccccc1)(c1ccccc1)n1ccnc1 [Clotrimazole, clotrimazole]: 10
- CC(C)c1nc(N(C)S(C)(=O)=O)nc(-c2ccc(F)cc2)c1/C=C/[C@@H](O)C[C@@H](O)CC(=O)O [Rosuvastatin, rosuvastatin]: 16

From here, focus on the item given below.
# input Data request, read-out inhibition at 1 min, 10 µM, for CO[C@H]1/C=C/O[C@@]2(C)Oc3c(C)c(O)c4c(O)c(c(/C=N/N5CCN(C)CC5)c(O)c4c3C2=O)NC(=O)/C(C)=C\C=C\[C@H](C)[C@H](O)[C@@H](C)[C@@H](O)[C@@H](C)[C@H](OC(C)=O)[C@@H]1C [Rifampicin, rifampicin]
# output 59

---

- target.or.test.system: mOATP1B2 (Mus musculus, UniProt Q9JJL3)
- Construct: The full-length mOATP1B2 and rOATP1B2 consist of 689 and 678 amino acids
- Sequence (Q9JJL3 1-689): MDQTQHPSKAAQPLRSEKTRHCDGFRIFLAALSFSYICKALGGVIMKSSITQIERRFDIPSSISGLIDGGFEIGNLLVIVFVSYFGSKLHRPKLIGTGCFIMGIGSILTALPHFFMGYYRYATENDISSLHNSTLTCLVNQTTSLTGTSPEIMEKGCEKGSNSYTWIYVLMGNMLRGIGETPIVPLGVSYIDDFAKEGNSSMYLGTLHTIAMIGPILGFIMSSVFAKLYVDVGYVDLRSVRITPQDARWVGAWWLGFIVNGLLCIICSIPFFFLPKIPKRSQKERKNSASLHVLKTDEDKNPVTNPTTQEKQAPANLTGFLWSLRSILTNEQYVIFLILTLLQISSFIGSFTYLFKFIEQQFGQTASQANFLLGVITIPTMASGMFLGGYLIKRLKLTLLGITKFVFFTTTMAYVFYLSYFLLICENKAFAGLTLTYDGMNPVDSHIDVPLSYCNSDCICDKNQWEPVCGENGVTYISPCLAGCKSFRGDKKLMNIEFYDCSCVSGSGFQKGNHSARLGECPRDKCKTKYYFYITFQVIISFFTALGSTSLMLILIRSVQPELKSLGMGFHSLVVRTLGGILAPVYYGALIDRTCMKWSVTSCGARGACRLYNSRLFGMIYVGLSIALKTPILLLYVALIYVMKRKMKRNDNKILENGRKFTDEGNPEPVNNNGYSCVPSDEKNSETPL
- test.method.notes: cis-inhibition of mOATP1B2-mediated E1S or TCA uptake in HEK293 cells
- Type: cell-based
- test.settings: HEK293, 10 µM drug, 1 µM [3H]-E1S, 1 min; read-out: Inhibitory effect on mOATP1B2-mediated E1S uptake
readout.name: inhibition at 10 µM (%)
Give the number; % is assumed, so skip it.

- CC(C)c1nc(CN(C)C(=O)N[C@H](C(=O)N[C@@H](Cc2ccccc2)C[C@H](O)[C@H](Cc2ccccc2)NC(=O)OCc2cncs2)C(C)C)cs1: 74
- CC(C)CN(C[C@@H](O)[C@H](Cc1ccccc1)NC(=O)O[C@H]1CCOC1)S(=O)(=O)c1ccc(N)cc1: 12

From here, focus on the item given below.
# input Data request, read-out inhibition at 10 µM, for CC(=O)N1CCN(c2ccc(OCC3COC(Cn4ccnc4)(c4ccc(Cl)cc4Cl)O3)cc2)CC1 (stereo not drawn)
# output 41
